B1: LINE1-full (parent)
chain: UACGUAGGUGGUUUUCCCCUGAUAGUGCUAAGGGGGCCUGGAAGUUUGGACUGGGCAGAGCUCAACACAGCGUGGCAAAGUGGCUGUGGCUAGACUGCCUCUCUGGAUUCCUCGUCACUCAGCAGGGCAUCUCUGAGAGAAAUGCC

variants of: B1; assay: self-cleavage, relative activity (ratio to wild type); higher = more cleavage; in vitro, sequencing; the parent is a self-cleaving ribozyme
Quick rule for you: self-cleavage at 0.4 or higher means TRUE, lower means FALSE.

Prompt: Does the reported self-cleavage for `UACGUAGGUGGUUUUCCCCUGAUAGUGCUAAGGGGGCCUGGAAGUUUGGACUGGGCAGAGCUCAACACAGCGUUGCAAAGUGGCUGUGGCUAGACUGCCUCUCUGGAUUCCCCGUCACUCAGCAGGGCAUCUCUGAGAGAAAUGCC` fall at or above the 0.4 mark?
Response: TRUE

Prompt: Identify whether the reported self-cleavage of the following variant is 0.4 or greater: `UACGUAGGUGGUUUUCCCCUGAUAGAGCUAAGGGGGCCUGGAAGUUUGGACUGGGCAGAGCUCAACACAGCGAGGCAAAGUGGCUGUGGCUAGACUGCCUCUCUGGAUUCCUCGUCACUCAGCAGGGCAUCUCUGAGAGAAAUGCC`
Response: TRUE

Prompt: Would you say `UACGUAGGUGGUUUUCCCCUGAUAGUGCUAAGGGGGCCUUGAAGUUUGGACUGGGCAGAGCUCAACACAGCGUGGCAAAGUGGCUGUGGCUAGACUGCCUCUCUGGAUUCCUCGUCACUCAGCAGGGCAUCUCCGAGAGAAAUGCC` shows self-cleavage at minimum 0.4?
Response: TRUE

Prompt: Reported self-cleavage at or above 0.4? `UACGUAGGUGGUUUUCCCCUGAUAGUGCUAAGGGGGCCUGGAAGUUUGGACUGGGCAGAGCUCAACACAGCGUGGCAAAGUGUCUGUGGCUAGACUGCCUCUCUGGAUUCCUCGUCACUCAGCGGGGCAUCUCUGAGAGAAAUGCC`
Response: FALSE

Prompt: Threshold query (self-cleavage >= 0.4) on `UACGUAGGUGGUUUUCCCCUGAUAGUGCUAAGGGGGCCUGGAAGUUUGGACUGGGCAGUGCUCAACACAGCGUGGCAAAGUGGCUGUGGCUAGACUGCCUCUCUGGAGUCCUCGUCACUCAGCAGGGCAUCUCUGAGAGAAAUGCC`
Response: TRUE

Prompt: // inclusive: self-cleavage at least 0.4? input: `UACGUAGGUGGUUUUCCCCUGAUAGUGCUAGGGGGGCCUGGAAGUUUGGACUGGGCAGAGCUCAACACAGCGUGGCAAAGUGGCUGUGGCUAGACUGCCUCUCUGGACUCCUCGUCACUCAGCAGGGCAUCUCUGAGAGAAAUGCC`
Response: TRUE

Prompt: Reported self-cleavage reaches at least 0.4 for `UACGUAGGUGGUUUUCCCCUGAUAGUGCUGAGGGGGCCUGGAAGUUUGGACUGGGCAGAGCUCAACACAGCGUGGCAAAGUGGCUGUGGCUAGACUGCCUCUCUCGAUUCCUCGUCACUCAGCAGGGCAUCUCUGAGAGAAAUGCC` ?
Response: FALSE

Prompt: Item `UACGUAGGUGGUUUUCCCCUGAUAGUGCUAAGGGGGCCUGGAAGUUUGGACUGGGCUGAGCUCAACACAGCGUGGCAAAGUGGCUGUGGCUAGACUGCCUCUCUGGUUUCCUCGUCACUCAGCAGGGCAUCUCUGAGAGAAAUGCC` with self-cleavage of 0.4 or above?
Response: FALSE

Prompt: Reported self-cleavage reaches at least 0.4 for `UACGUAGGAGGUUUUCCCCUGAUAGUGCUAAGGGGGCCCGGAAGUUUGGACUGGGCAGAGCUCAACACAGCGUGGCAAAGUGGCUGUGGCUAGACUGCCUCUCUGGAUUCCUCGUCACUCAGCAGGGCAUCUCUGAGAGAAAUGCC` ?
Response: FALSE

Prompt: Please indicate if the recorded self-cleavage for `UACGUAGGUGGUUUUCCCCUGAUAGUGCUAAGGGGGCCUGGAAGUUUGGACUAGGCAGAGCUCAACACAGCGUGGCAAAGUGGCUGUGGCUAGACUGCCUCUCUGGAUUCCUCGUCACUCAGCAGUGCAUCUCUGAGAGAAAUGCC` meets or exceeds 0.4.
Response: TRUE

Prompt: Does `UACGUAGGUGGUUUUCCCCUGAUAGUGCUAAGGGGGCCUGGAAGUUUGGACUGGGCAGAGCUCAACACAACGUGGCAAAGUGGCGGUGGCUAGACUGCCUCUCUGGAUUCCUCGUCACUCAGCAGGGCAUCUCUGAGAGAAAUGCC` have a reported self-cleavage of at least 0.4?
Response: FALSE

Each recorded value in this set is attributed to the RNAGym collection of RNA variant scans (doi:10.7554/elife.90254).
